Tested on: PLA2
Experiment: Anti-PLA2 activity (Table 6)
Type: biochemical
Condition details: read-out: IC-50 Anti-PLA2 Activity
Please respond with reported IC50 for every item in the list.
Answers are plain numbers, in µM.

Below, each entry is followed by its recorded IC50 result.
1) CCCCCCCC/C=C\CCCCCCCC(=O)OCC1(COC(=O)CCCCCCC/C=C\CCCCCCCC)COC(=O)CN1C(=O)CCCCCCC/C=C\CCCCCCCC [PX-11, Tricinyl Trioleate] :: 2.6
2) CCCCCCCC/C=C\CCCCCCCC(=O)OC(C(=O)O)C(OC(=O)CCCCCCC/C=C\CCCCCCCC)C(=O)O (stereo not drawn) [PX-10] :: 7

We now examine a further molecule.
Tested on PLA2: CCCCC/C=C\C/C=C\CCCCCCCC(=O)OCC1(COC(=O)CCCCCCC/C=C\C/C=C\CCCCC)COC(=O)CN1C(=O)CCCCCCC/C=C\C/C=C\CCCCC [PX-15] . Observed IC50: 19.2

* * *

Experiment: Anti-oxidant activity (Table 6)
Condition details: read-out: IC-50 Anti-Oxidant Activity; nd = not detectable at ≤ 500 uM
For each record, write down the corresponding IC50.
Answers are plain numbers, in µM.

1) CCCCCCCC/C=C\CCCCCCCC(=O)OCC(N)(COC(=O)CCCCCCC/C=C\CCCCCCCC)COC(=O)CCCCCCC/C=C\CCCCCCCC :: 50
2) CCCCCCCC/C=C\CCCCCCCC(=O)OCC1(COC(=O)CCCCCCC/C=C\CCCCCCCC)COC(=O)CN1C(=O)CCCCCCC/C=C\CCCCCCCC [PX-11, Tricinyl Trioleate] :: 145
3) CCCCC/C=C\C/C=C\CCCCCCCC(=O)OC(C(=O)O)C(OC(=O)CCCCCCC/C=C\C/C=C\CCCCC)C(=O)O (centres unmarked) :: 100
4) CCCCCCCC/C=C\CCCCCCCC(=O)OC(C(=O)O)C(OC(=O)CCCCCCC/C=C\CCCCCCCC)C(=O)O (centres unmarked) :: 60

Shift focus to the following entry.
Entry under test: CCCCCCCC/C=C\CCCCCCCC(=O)OCC(COC(=O)CCCCCCC/C=C\CCCCCCCC)(COC(=O)CCCCCCC/C=C\CCCCCCCC)NCCS(=O)(=O)O [PX-13, TES Trioleate] . Its IC50 was 60
